The reader will find reported GI50 values listed item by item below.
system: A549; test: NCI tumour cell line growth inhibition, 48 h
Activity calls are given as the source filed them. Rule as the data show it: active = GI50 up to about 1.1 µM and inactive = higher.

Ask: Quick one: GI50 of `CC(C)c1nc2cc(C(F)(F)F)ccc2[nH]c1=O` ?
Reply: 53.6 µM (inactive)

Ask: Quick one: GI50 of `Clc1ccc(Cn2cc(/C=N/n3cnnc3)c3ccccc32)cc1` ?
Reply: 41.8 µM (inactive)

Ask: Quick one: GI50 of Cc1cn2c(=O)c3ncn(C4OC(CO)C(O)C4O)c3n(C)c2n1 (stereo not drawn) ?
Reply: > 100 µM (inactive)

Ask: Quick one: GI50 of `Cc1ncc(COP(=O)(O)O)c(C)c1O` ?
Reply: > 100 µM (inactive)

Ask: Quick one: GI50 of `Clc1cc(Cl)c2n[se]nc2c1` ?
Reply: > 100 µM (inactive)

Ask: Quick one: GI50 of `CC(C)(C)[C@H]1CCC2(OCCO2)[C@](O)(CCCO)C1` ?
Reply: > 100 µM (inactive)

Ask: Quick one: GI50 of `O=c1c2ccccc2c(=O)c2c1cc(Cl)c1[nH]c3c([nH]c12)c(Cl)cc1c(=O)c2ccccc2c(=O)c13` ?
Reply: > 100 µM (inactive)

* * *

test system: A498; assay: NCI tumour cell line growth inhibition, 48 h
Activity calls are given as the source filed them. Cut-off read from the data, not from the text of the source: active = GI50 up to about 1.1 µM and inactive = higher.
Recorded metric: GI50

Cc1nc2ccccc2n1COC(Cn1ccnc1)c1ccc(Cl)cc1Cl (stereo unspecified) | > 100 µM (inactive)
CC1=Nc2ccccc2NC(c2ccoc2)C1 (stereo unspecified) | > 100 µM (inactive)
CC#CCOC(=O)c1ccccc1OC(C)=O | > 100 µM (inactive)

Ask: Quick one: GI50 of O=C1/C(=C/C=C/c2ccccc2)N=C(c2ccccc2)N1C1Nc2cc3c(cc2S1)NC(N1C(=O)/C(=C/C=C/c2ccccc2)N=C1c1ccccc1)S3 (stereo unspecified) ?
Reply: 15.5 µM (inactive)

Ask: Quick one: GI50 of `O=C1C[C@H](c2ccccc2)C2(C(=O)c3ccccc3C2=O)[C@@H](c2ccccc2)C1` ?
Reply: 7.64 µM (inactive)

Ask: Quick one: GI50 of `CCOC(=O)c1c(NC(=O)c2ccc(Br)cc2)sc2c1CCCC2` ?
Reply: 25.1 µM (inactive)

* * *

tested on: SR; test: NCI tumour cell line growth inhibition, 48 h
The source made the active and inactive calls. Cut-off read from the data, not from the text of the source: active = GI50 up to about 1.1 µM and inactive = higher.
Answer with one of the outcomes True = active, False = inactive

// known answers, use as guide
NC1=NS(=O)(=O)Nc2nc(-c3ccc(Cl)cc3)[nH]c21 | False
SCCCSCCSCCCSCCS | False
Cc1cccc(-c2cccc(COCc3cccc(-c4cccc(CO)n4)n3)n2)n1 | False
Cc1ccc(/N=N/c2c(-c3ccccc3)nn(C(=O)CC(=O)Nc3ccc(Cl)cc3)c2-c2ccccc2)cc1 | False

Now consider a different compound.
Ask: What classification did `CCOC(=O)Cn1nc2ccc(Nc3c(C)[n+]([O-])c4cc(F)c(OCC)cc4[n+]3[O-])cc2n1` end up with in this test?
Reply: False

* * *

test system: DLD-1; assay: NCI tumour cell line growth inhibition, 48 h
Calls of active or inactive are those of the source. Rule as the data show it: active = GI50 up to about 1.1 µM and inactive = higher.
Recorded metric: GI50

Worked set:
Cc1cc(NS(=O)(=O)c2ccc(Nc3c4ccccc4nc4c(C(=O)N5CCN(CCO)CC5)ccc(Cl)c34)cc2)no1 | 52.5 µM (inactive)
COC(=O)C1Cc2c(n(C)c3ccccc23)C(c2ccccc2)N1 (stereo unspecified) | > 10 µM (inactive)
CCC/C=C/C=C\C(=O)O[C@@H]1[C@@H](C)[C@]2(O)[C@@H]3C=C(C)C(=O)[C@H]3CC(COC(C)=O)=C[C@H]2[C@@H]2C(C)(C)[C@]12OC(C)=O | 16.7 µM (inactive)

Ask: Quick one: GI50 of `NC(=S)N/N=C/c1ccc(OC(=O)COc2ccccc2Cl)cn1` ?
Reply: 33 µM (inactive)

Ask: Quick one: GI50 of O=[N+]([O-])c1cccc(C2=NOC(C3CCCCC3)C2)c1 (stereo unspecified) ?
Reply: > 100 µM (inactive)

Ask: Quick one: GI50 of `CCOC(=O)CNC(=O)N(CC)C12CC3CC(CC(C3)C1)C2` ?
Reply: 34.7 µM (inactive)
